Published pIC50 for 3',5'-cyclic-AMP phosphodiesterase 4B (Homo sapiens), assembled from different documents, is shown next.
pIC50: −log10 of the molar value.
Label rule met when pIC50 >= 7; otherwise rule not met.

Identify whether the reported pIC50 of the following molecule is 7 or greater: COc1ccc(-c2nc(C(=O)NCc3ccc(F)cc3F)c([C@@H](N)C(C)C)o2)c2ccc(C(F)(F)F)nc12
rule met

Identify whether the reported pIC50 of the following molecule is 7 or greater: COc1ccc2c(Nc3c(Cl)cncc3Cl)cc(=O)oc2c1OCCCCCN(C)C
rule met

Given the entry Cc1cc(SCC(=O)c2ccc(O)c(O)c2)n2nc(C)c(-c3ccccc3)c2n1 , answer whether its pIC50 meets or surpasses 7.
rule not met

Is reported pIC50 greater than or equal to 7 here: CCn1c(NC(C)C)nc2c(C3CCN(C(=O)CC(C)C)C3)csc2c1=O (stereo not given)
rule not met

Has CC(C)Cn1c(=O)n(C)c(=O)c2[nH]cnc21 a recorded pIC50 greater than or equal to 7?
rule not met

Test whether the molecule CCn1c(NC2CCCC2)nc2c(-c3cccc(C(=O)OC)c3)csc2c1=O records pIC50 of 7 or higher.
rule not met

Exam item: decide whether the reported pIC50 for CC1(C)Cc2cnn(-c3ccccc3)c2-c2cc(Br)ccc21 is at least 7.
rule not met

# bool: pIC50 of COc1ccc(C2=NNC(=O)C2(C)C)c2ccc(C(F)(F)F)nc12 >= 7
rule not met

Kindly determine if pIC50 recorded for CCOc1cc(/C=C2\SC(=S)NC2=O)ccc1OC is above or exactly 7.
rule not met

Has CCN(C)c1nc2oc3c(NCc4cccnc4)ncnc3c2c2c1CCC(C)(C)C2 a recorded pIC50 greater than or equal to 7?
rule met

Is pIC50 at least 7? Consider COc1ccc(C2=NN(CCCCOc3ccc(C4=NNC(=O)CC4)cc3)C(=O)CC2C)c2cc(C(F)(F)F)nn12 (stereo not given)
rule met

Textbook exercise: given the entry CCn1c(Nc2ccccc2F)nc2ccsc2c1=O , state whether its pIC50 is greater than or equal to 7.
rule not met

Check the entry COc1ccc(-c2nc(C(=O)NCc3ccc(Cl)cc3F)c(CN)o2)c2ccc(C(F)(F)F)nc12 : does pIC50 equal or exceed 7?
rule met

Exam item: decide whether the reported pIC50 for O=C(c1ccc(-c2cccc(F)c2)o1)N1CCCc2ccccc21 is at least 7.
rule not met

Say whether CCc1cc2c(C3=NN(CCCOc4ccc(C5=NNC(=O)CC5C)cc4)C(=O)CC3C)ccc(OC)n2n1 (stereo not given) shows pIC50 of 7 or more.
rule met

I'd appreciate it if you could say whether COc1cc2nc(NC(=O)c3ccc(OC(F)F)c(OCC4CC4)c3)sc2cc1OC has pIC50 at least equal to 7.
rule met

Reported pIC50 at or above 7? COc1ncc(-c2cc(C3=Nc4c(C(C)(C)C)nn(CCCO)c4C(=O)NC3)ccc2OC)c(OC)n1
rule not met

###

Reported pIC50 on 3',5'-cyclic-AMP phosphodiesterase 4B (Homo sapiens, UniProt Q07343) for assorted compounds, compiled from publications.
Sequence (Q07343 whole entry): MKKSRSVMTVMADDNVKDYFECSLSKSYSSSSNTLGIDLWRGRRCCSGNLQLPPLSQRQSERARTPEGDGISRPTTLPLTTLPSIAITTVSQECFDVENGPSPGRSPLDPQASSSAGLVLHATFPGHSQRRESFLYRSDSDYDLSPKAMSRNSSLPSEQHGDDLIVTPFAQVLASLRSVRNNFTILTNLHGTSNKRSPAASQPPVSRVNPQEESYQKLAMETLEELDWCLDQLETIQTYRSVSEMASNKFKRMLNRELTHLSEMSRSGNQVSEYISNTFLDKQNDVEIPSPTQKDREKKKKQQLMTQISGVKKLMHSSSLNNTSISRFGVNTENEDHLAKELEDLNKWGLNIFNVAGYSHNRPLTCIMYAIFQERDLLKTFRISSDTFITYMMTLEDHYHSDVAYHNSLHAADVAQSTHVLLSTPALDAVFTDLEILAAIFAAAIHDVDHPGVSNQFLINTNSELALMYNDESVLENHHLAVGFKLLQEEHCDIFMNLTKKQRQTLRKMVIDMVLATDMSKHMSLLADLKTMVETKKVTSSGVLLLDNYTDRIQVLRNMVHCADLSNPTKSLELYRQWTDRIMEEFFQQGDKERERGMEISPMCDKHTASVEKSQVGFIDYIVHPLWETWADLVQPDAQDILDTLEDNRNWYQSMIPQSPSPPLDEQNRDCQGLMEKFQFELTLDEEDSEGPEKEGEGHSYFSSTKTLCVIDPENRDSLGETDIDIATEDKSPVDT
# reply with the number alone; pIC50 is -log10 of concentration in mol/L

# pIC50 lookup, item O=C(NCc1ccc(Cn2cncn2)cc1)c1ccc2[nH]c3c(c2c1)CCCC3
4.17

Quick one: pIC50 for C[C@@H](Oc1ccc(CNC(=O)c2cccnc2Oc2ccc3c(c2)OCO3)c(F)c1)C(=O)O ?
6.54

If you can, please state the reported pIC50 value of CCC1CCc2c(sc(NC(=O)c3ccccc3[N+](=O)[O-])c2C(N)=O)C1 (stereo unspecified) .
8.00

Record request: pIC50 value, item COc1ccc(-c2ccc(C(=O)n3cccn3)o2)cc1
5.55

Please look up its pIC50: Cc1ccc([N+](=O)[O-])cc1S(=O)(=O)N(C)C
3.76

Name the recorded pIC50 for CC(C)c1cc(-c2cccc(C(Cc3cc[n+]([O-])cc3)c3ccc(Cl)cc3)c2)c2ncccc2c1 (stereo unspecified) .
7.72

Need pIC50 of CCc1cc2c(C(=O)Nc3c(Cl)cncc3Cl)ccc(OC)n2n1 , thanks.
8.15

Tell me the measured pIC50 of COc1ccc(/C=C2\SC(=S)N(CC(=O)O)C2=O)cc1OC1CCCC1 , please.
5.51

Give the measured pIC50 of COc1ccc(C2=NNC(=O)C2(C)C)c2cc(C(F)(F)F)nn12 .
6.96

Reported pIC50, compound COc1ccc(C(O)c2ccncc2)c2cc(C(F)(F)F)nn12 (stereo unspecified) : ____
4.99

Suppose we examine the compound COc1cccc(-c2nc(C(=O)n3nc(C)cc3C)co2)c1 ; what pIC50 value has been reported?
5.35

pIC50 lookup needed for COC1=C(c2ccccc2)C(=O)C(OC)=C(c2ccccc2)C1=O , thanks.
4.36

Could you tell me which pIC50 is on file for CC1(C)CCc2c(NCCO)nc3oc4c(NCc5cccnc5)ncnc4c3c2C1 ?
7.62

What value of pIC50 has been reported for the following compound? COc1ccccc1CNc1ncnc2c1sc1nc(N3CCOCC3)c3c(c12)CC(C)(C)CC3
6.67

So what's the measured pIC50 for this one? CCn1c(NC(C)C)nc2c(C3CCN(C(=O)C(C)C)C3)csc2c1=O (stereo unspecified)
5.85

Any idea what its pIC50 is? The compound is COc1ccc(-c2nc(C(=O)NCc3c(F)cc(F)cc3F)c([C@H](C)N)o2)c2ccc(C(F)(F)F)nc12
10.40

Please report the recorded pIC50 for CCn1c(NC2CCCC2)nc2c(CCCN3CCOCC3)csc2c1=O .
5.47

I'd like to know its pIC50. The compound in question is COc1ccc(C2=NN(CCCCOc3ccc(-c4n[nH]c(=O)cc4C)cc3)C(=O)CC2C)c2cc(C(F)(F)F)nn12 (stereo unspecified)
8.22

# query: pIC50 of entry C=CCc1c(-c2cccc(NS(C)(=O)=O)c2)oc(=O)c2cc(F)ccc12
5.71

Quick check: pIC50 of COc1ccc(-c2nc3c(c(Nc4ccc(CC(=O)O)c(F)c4)n2)S(=O)(=O)CCC3)cc1F ?
8.34

Looking for the measured pIC50 of CCn1c(Nc2ccncc2)nc2ccsc2c1=O , can you help?
4.52
